Data origin: patent US20230293535A1

molecules and their reported IC50
# system.under.test: human EGFR exon 20 V769_D770insASV (Homo sapiens, UniProt P00533, INS769ASV)
# Sequence (P00533 with tags, fused parts or gaps INS769ASV): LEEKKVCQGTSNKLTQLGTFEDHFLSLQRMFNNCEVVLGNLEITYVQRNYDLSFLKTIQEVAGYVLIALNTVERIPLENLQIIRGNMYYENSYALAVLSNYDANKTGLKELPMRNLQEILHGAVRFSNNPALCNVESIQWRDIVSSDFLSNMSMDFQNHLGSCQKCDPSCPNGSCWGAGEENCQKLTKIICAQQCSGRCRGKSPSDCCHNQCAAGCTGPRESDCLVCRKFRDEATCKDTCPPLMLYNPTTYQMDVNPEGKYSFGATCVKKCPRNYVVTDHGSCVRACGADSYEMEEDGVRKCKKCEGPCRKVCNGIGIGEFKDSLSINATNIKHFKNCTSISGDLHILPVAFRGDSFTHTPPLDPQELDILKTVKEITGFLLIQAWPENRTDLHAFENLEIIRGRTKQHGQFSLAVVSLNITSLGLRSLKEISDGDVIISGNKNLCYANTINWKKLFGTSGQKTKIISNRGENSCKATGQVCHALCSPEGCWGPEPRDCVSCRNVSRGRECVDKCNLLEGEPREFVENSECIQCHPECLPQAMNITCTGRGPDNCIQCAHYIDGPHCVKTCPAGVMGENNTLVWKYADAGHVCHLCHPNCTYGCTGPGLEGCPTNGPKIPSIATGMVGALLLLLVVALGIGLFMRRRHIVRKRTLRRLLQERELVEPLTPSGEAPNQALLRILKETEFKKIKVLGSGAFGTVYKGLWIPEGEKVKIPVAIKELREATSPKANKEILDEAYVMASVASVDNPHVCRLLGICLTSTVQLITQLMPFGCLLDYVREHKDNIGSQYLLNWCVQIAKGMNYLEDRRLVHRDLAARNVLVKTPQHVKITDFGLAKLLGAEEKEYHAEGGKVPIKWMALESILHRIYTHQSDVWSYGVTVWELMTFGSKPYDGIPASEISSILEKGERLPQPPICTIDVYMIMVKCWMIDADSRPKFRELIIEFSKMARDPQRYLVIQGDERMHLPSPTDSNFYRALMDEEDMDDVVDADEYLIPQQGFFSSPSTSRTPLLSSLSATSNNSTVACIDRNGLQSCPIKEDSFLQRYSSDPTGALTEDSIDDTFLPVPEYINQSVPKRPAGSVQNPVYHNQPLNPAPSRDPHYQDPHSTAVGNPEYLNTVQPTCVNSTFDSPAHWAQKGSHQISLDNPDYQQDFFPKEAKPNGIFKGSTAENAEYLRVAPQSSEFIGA
# method: EGFR Exon20 ASV insertion cellular phosphorylation inhibition (MSD pEGFR Y1068/total EGFR);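 further: electrochemiluminescent readout on an MSD SECTOR Imager, IL3-independent transduced cells in medium with 1% FBS, compound concentration series at 37 °C and 5% CO2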
# reported.conditions: Ba/F3 EGFR ASV ins cells, 4 h compound, p-EGFR(Y1068)/total EGFR
API: value field is a number in nM; no unit string.

Exam item: For the molecule shown here, C=CC(=O)Nc1cc(Nc2ncnc(Nc3cc(F)c(Cl)cc3C(C)(C)O)n2)c(OC)cc1N1CC[C@@H](N(C)C)C1 [Compound 51] , give the reported IC50.
Marked response: 16.1

Exam item: For the molecule shown here, C=CC(=O)Nc1cc(Nc2ncnc(Nc3cc(Cl)c(F)cc3C(C)(O)CC)n2)c(OC)cc1N1CC[C@@H](N(C)C)C1 (single isomer, unassigned) [Compound 70] , give the reported IC50.
Marked response: 22.3

Exam item: For the molecule shown here, C=CC(=O)Nc1cc(Nc2ncnc(Nc3cc(F)c(Cl)cc3C(C)(C)O)n2)c(OC)cc1N(C)CCN(C)C [Compound 12] , give the reported IC50.
Marked response: 6.4
